MEASURED TARGET: HLA-B*53:01
ASSAY DETAILS: IEDB peptide-MHC binding, purified MHC/competitive/fluorescence; filed as Kd, often an IC50 or EC50 that approximates it; bounds were set here for any values at or beyond the usual limits of such assays
CONDITION PARAMETERS: source organism: Cryptosporidium parvum Iowa II
MEASURE: Kd

# query: Kd of entry "TVFRNQNRV"
≥ 5 µM

---

MEASURED TARGET: HLA-B*40:01
ASSAY DETAILS: IEDB peptide-MHC binding, purified MHC/direct/fluorescence; filed as Kd, often an IC50 or EC50 that approximates it; bounds were set here for any values at or beyond the usual limits of such assays
CONDITION PARAMETERS: source organism: Influenza A virus (A/Puerto Rico/8/34/Mount Sinai(H1N1))
MEASURE: Kd

Lab note: need Kd with HLA-B*40:01 for entry "NESGRLIDF" , please look it up.
≥ 5 µM
